Measured T/C accompanies every entry in the list below.
Tested on: P388 leukemia ip, CD2F1 mice, survival T/C
method: NCI In Vivo Anticancer Drug Screen. Data for tumor model P388 Leukemia (intraperitoneal) in CD2F1 (CDF1) mice
test-conditions: endpoint: median survival time; dose: 50.0 mg/kg/injection; schedule: Q01DX009 (ip); vehicle: Klucel (hydroxypropylcellulose) (HPC); higher = longer survival
Inconclusive results and toxic doses are left out.
reported-metric: T/C

Cc1nnc(Cc2ccco2)c2n[nH]c(C)c12 = 96 % of control
COc1ccc(C(=O)CC2(O)C(=O)Nc3ccccc32)cc1 (stereo unspecified) = 100 % of control
CC(=O)/C(C=NCC(C)(CN=C/C(C(C)=O)=C(/C)O)CN=C/C(C(C)=O)=C(/C)O)=C(\C)O (stereo unspecified) = 97 % of control
CCCC(NC(=O)C(C)N)C(=O)O (stereo unspecified) = 107 % of control
O=C1c2ccccc2C(=O)C1(Br)C(Cl)c1ccccc1 (stereo unspecified) = 90 % of control
Cc1cc(OC(=O)N(C)C)nc(SCC(=O)c2ccc(Cl)cc2)n1 = 99 % of control
O=C(/C=C(/SS/C(=C/C(=O)c1ccccc1)c1ccccc1)c1ccccc1)c1ccccc1 = 98 % of control
N#CC1C(=O)NC(=O)C(C#N)C1c1ccc(C2C(C#N)C(=O)NC(=O)C2C#N)cc1 (stereo unspecified) = 105 % of control
CCCCCCCCCC(=O)Nc1ncc([N+](=O)[O-])s1 = 94 % of control
CC(=O)Nc1ccc(O)c(CN2CCN(c3ccccc3)CC2)c1 = 102 % of control
CC(C)(C)C(CO)CNc1ccccc1 (stereo unspecified) = 110 % of control

* * *

System: P388 leukemia ip, CD2F1 mice, survival T/C
method: NCI In Vivo Anticancer Drug Screen. Data for tumor model P388 Leukemia (intraperitoneal) in CD2F1 (CDF1) mice
test-conditions: endpoint: median survival time; dose: 15.0 mg/kg/injection; schedule: Q01DX005 (ip); vehicle: Klucel (hydroxypropylcellulose) (HPC); higher = longer survival
Protocol: The antitumor activity of compounds was measured in mice bearing transplantable tumors. Survival or tumor size were measured and the results are expressed as the measurement made in the treated group (T) divided by the measurement made in the vehicle treated control group (C). The tumor model used in this assay is P388 Leukemia (intraperitoneal) in CD2F1 (CDF1) mice
Inconclusive results and toxic doses are left out.
reported-metric: T/C

CNC(=O)Oc1ccccc1OC(C)C = 96 % of control
CC(=O)OC1CC(C(C)C2CC(C)=C(C)C(=O)O2)C2(C)CCC3C(CC4OC45C(O)C=CC(=O)C35C)C12O (centres undefined) = 105 % of control
CCOC(=O)c1ccc(NC(=O)N(C2CCCCC2)C2CCCCC2)cc1 = 89 % of control
CCN(CC)C(=O)c1ccc(C)c2c1Nc1c(c(C)c3oc(=O)c(C)nc3c1C(=O)N(CC)CC)O2 = 90 % of control

* * *

Measured T/C accompanies every entry in the list below.
System: P388 leukemia ip, CD2F1 mice, survival T/C
method: NCI In Vivo Anticancer Drug Screen. Data for tumor model P388 Leukemia (intraperitoneal) in CD2F1 (CDF1) mice
test-conditions: endpoint: median survival time; dose: 200.0 mg/kg/injection; schedule: Q04DX003 (ip); vehicle: Klucel (hydroxypropylcellulose) (HPC); higher = longer survival
Toxic doses and inconclusive results are not listed.
reported-metric: T/C

COP(=O)(OC)O/C(=C/Cl)c1cc(Cl)cc(Cl)c1Cl = 100 % of control
N#CCCSC(=S)C(C#N)C(=N)c1ccccc1 (stereo not given) = 92 % of control
N=C(N)SCCN1C(=O)NC(c2ccccc2)(c2ccccc2)C1=O = 114 % of control
Cc1cc(Cl)cc(S(=O)(=O)O)c1N = 97 % of control
C=CC(=O)OCCCCCCCCCC = 109 % of control
C=CC(C)(C)C1Oc2cc(O)ccc2C(=O)C1c1ccc(OC)c(OC)c1O (stereo not given) = 100 % of control
O=[N+]([O-])c1ccc([Se]CCBr)c([N+](=O)[O-])c1 = 101 % of control
CCOC(=O)C1CCCN(C)C1 (stereo not given) = 100 % of control
CC1CC=C(C(=O)N2CCOCC2)C1 (stereo not given) = 101 % of control
Cc1ccc(-c2cnc3c(n2)c(=O)[nH]c(=O)n3C)cc1 = 98 % of control
NC(=S)c1ccc(N)cc1 = 106 % of control
C[C@H]1C[C@H](c2ccccc2)[C@@H](c2ccccc2)C(=O)O1 = 92 % of control
O=C1C=C2COC(O)CC2CC1 (stereo not given) = 105 % of control
CC(C)N1C(=O)c2ccccc2S12c1ccccc1C(=O)N2C(C)C = 90 % of control
CCn1c(-c2ccccc2)nc(=S)c(C(=O)c2ccccc2)c1SC = 100 % of control

* * *

Tested on: P388 leukemia ip, CD2F1 mice, survival T/C
method: NCI In Vivo Anticancer Drug Screen. Data for tumor model P388 Leukemia (intraperitoneal) in CD2F1 (CDF1) mice
test-conditions: endpoint: median survival time; dose: 25.0 mg/kg/injection; schedule: Q01DX009 (ip); vehicle: other; higher = longer survival
Toxic doses and inconclusive results are not listed.
Measured T/C accompanies every entry in the list below.
reported-metric: T/C

N#CCOc1ccccc1 = 106 % of control
COC(=O)Nc1cnc(C=O)c(C)c1-c1ccc(OC)c(OC)c1OCc1ccccc1 = 119 % of control
CCOC(=O)C1=C(C)NC(C)=C(C(=O)OCC)C1c1ccc(OC)c(OC)c1 = 106 % of control
O=[N+]([O-])c1cc2c(cc1C1OCCO1)OCO2 = 102 % of control
CC1=C(C#N)C(C)(C)C(C#N)=C(C)N1 = 106 % of control
CC1(C)CC(C)(OC(=O)c2ccc([N+](=O)[O-])cc2)N=N1 (stereo unspecified) = 97 % of control

* * *

Tested on: P388 leukemia ip, CD2F1 mice, survival T/C
method: NCI In Vivo Anticancer Drug Screen. Data for tumor model P388 Leukemia (intraperitoneal) in CD2F1 (CDF1) mice
test-conditions: endpoint: median survival time; dose: 3.12 mg/kg/injection; schedule: Q01DX009 (ip); vehicle: saline; higher = longer survival
Toxic doses and inconclusive results are not listed.
reported-metric: T/C

Nc1nc(SCc2ccccc2)c2ncn(CCCl)c2n1 = 105 % of control
CCCCCCCCCCCCCC[N+]1(CC)CCOCC1 = 119 % of control
O=[N+]([O-])c1ccc(/C=C/[n+]2ccc3ccccc3c2)o1 = 103 % of control
CC(C)[CH2][Sn]1([CH2]C(C)C)[O]CCNCC[O]1 = 88 % of control

* * *

Tested on: P388 leukemia ip, CD2F1 mice, survival T/C
method: NCI In Vivo Anticancer Drug Screen. Data for tumor model P388 Leukemia (intraperitoneal) in CD2F1 (CDF1) mice
test-conditions: endpoint: median survival time; dose: 25.0 mg/kg/injection; schedule: Q04DX003 (ip); vehicle: saline; higher = longer survival
Inconclusive results and toxic doses are left out.
Measured T/C accompanies every entry in the list below.
reported-metric: T/C

c1cc(-c2cc3ccc(C4=NCCN4)cc3s2)ccc1C1=NCCN1 = 115 % of control
O=C1NC(=O)C2(CCCC2=Nc2ccc(Br)cc2)C2C=CN(Cc3ccccc3)C=C12 (centres undefined) = 107 % of control
CC(=O)O.CC(=O)O.CC(=O)O.CC(=O)O.[Rh].[Rh] = 122 % of control
CCC[CH2][Sn]([F])([F])[CH2]CCC = 118 % of control

* * *

Test system: P388 leukemia ip, CD2F1 mice, survival T/C
method: NCI In Vivo Anticancer Drug Screen. Data for tumor model P388 Leukemia (intraperitoneal) in CD2F1 (CDF1) mice
test-conditions: endpoint: median survival time; dose: 400.0 mg/kg/injection; schedule: Q04DX002 (ip); vehicle: saline with Tween-80; higher = longer survival
Inconclusive results and toxic doses are left out.
Measured T/C accompanies every entry in the list below.
reported-metric: T/C

CC(C)(C)C(=O)Oc1ccc([N+](=O)[O-])cc1 = 102 % of control
COc1ccc(N2C(=O)CC(n3ccccc3=O)C2=O)cc1 (stereo not given) = 101 % of control
Cc1ccc(S(=O)(=O)Nc2ccccc2N(CCNCCOS(=O)(=O)c2ccc(C)cc2)S(=O)(=O)c2ccc(C)cc2)cc1 = 91 % of control
CC(C)(C)OOC(=O)c1ccc(Cl)cc1 = 101 % of control
COC(=O)C1=C(C2=C(C(=O)OC)CCC2)CCC1 = 100 % of control
NC(=O)CCCCCOc1ccc(OC2OC(CO)C(O)C(O)C2O)cc1 (stereo not given) = 104 % of control
CSc1nc(SC)c2c(CO)c(Br)n(Cc3ccccc3)c2n1 = 88 % of control
O=C1c2ccccc2C(=O)C1(Br)c1ccc(Cl)cc1 = 99 % of control
C=Cn1c([N+](=O)[O-])cnc1/C=C/c1ccc(C(=O)NCCO)cc1 = 93 % of control
CCN(CC)[Se]c1ccccc1 = 98 % of control
